src = ChEMBL document CHEMBL1138592

- Test Details: Half life in monkey
- Type: ADME, organism-based, Macaca mulatta
- Test Context: rhesus monkey, in vivo
Readout: half-life

// query Could you share which half-life value was measured for CC(C)(C)c1nc2nc(-c3ccccc3Cl)c(-c3ccc(C#N)cc3)cc2c2n[nH]c(=O)n12 ?
// result 9.9 h

====

- Test Details: Ratio of drug level in brain to plasma in rat after 4 hrs
- Assay type: ADME
- Test Context: brain and plasma
Readout: Kp at 4 h
Output: the number by itself.

// query Could you share which Kp at 4 h value was measured for CC(C)(C)c1nc2nc(-c3ccccc3Cl)c(-c3ccc(Cl)cc3)cc2c2n[nH]c(=O)n12 ?
// result 0.59
